Below is a list of entries, each paired with its recorded PBM binding z-score value.
test system: RARg homodimer (NR concentration 270 nM); assay: PBM binding z-score (relative to random genomic background probes); higher = stronger binding; sequences stand for … in GC…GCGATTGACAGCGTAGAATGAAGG
PROPERTY NAME: PBM binding z-score

1. GCAGACAGGCGAAACGCAGGTAACTCAGGGTGGC    -0.272
2. CCATACGGGTCACTCCAGGTTATAGCATCGGAGT    3.85
3. TCGAGTAGGTTATGGGCATTCAGAATGGCGTCGA    -0.106
4. CCTTACGGGTCACTGACAGGTTGTAGCATTTGGA    4.23
5. TCATATAGGTAAACAGGTGAAAGCCCGTAAGTTA    0.364
6. TCTTATAGATCAGCAGGTTAAGAAAGCTGGCCAA    -0.0955
7. AACACAGGGTCACTAGGCCAGAGTAGGTACGAAT    4.83
8. TCTAGCAAGCCAGAGGGTCACTCAAGAGGTACGG    1.39
9. CCTTGCAGGCCAGGGTCACTCAAGCATTTCGCTT    2.83
10. CCTGCTAGGTCAATGGTTAGCTAAAGCAGCTCGC    3.9
11. AGTCAAGGTTCACTAGGTAACGTAAGATTCAGCT    2.72
12. CTGACTGGGGCAAGGTTACCATAACGCACAGCCA    1.43
13. TCATATAGGTAAATGCAAGGTGAAAGTCCGATCT    0.776
14. CGTAGCAGGCCAATCTGGGTCACTCAAGGCTTGA    1.26
15. CATACAGGGTTAGCTAGGCCAGAGTAGGGACGGC    0.633
16. CCTACGGGGCCATCAGGTCATTGATATCAACGTT    2.83
17. CCTATTAGTTGACCATAAGGGCAGCCGAAGCTCG    0.64
18. ATCTCCAGGTAAAAGTTCAGTGAATCCCGAGGAT    2.33
19. GCTTACGGGGCAAAGGTTATAGCATGAATAGAAT    1.43
20. GCGACTGGGGCATCAGGAGGTTACCATAACTTAA    0.983
21. AATAGAGGGTCATCGTAGGCCAGAGTACGCACAG    5.12
22. CAGACTAGGTCAAGGTCAAAGTCGGTTTGTGCCA    6.67
23. ACAGACTGGTGATGAAGGTAACTCAGGCTATCAT    0.0364
24. CCTGCTAGGTCAATGGTCAACTAAAGCAGCTCGC    4.5
25. TGAATGAGGTTAAAGATCAGGGGACGTGGCGTCG    1.31
26. GGAAGGAGGGCAAGTTGATAGCAGAGTTTGATGG    1.88
27. ATCTCTAGGTAAAGTTCAGTGAAAGATCGATAGA    2.77
28. CCGACTGGGGCAAGGTTATCATAACGCACAGCCA    1.08
29. CCTACTGGGCCAAGGGTCATTGATTCCAATGCTC    3.31
30. CCGATTGGGGCAAAGGTTACCATACTCAGTACGA    1.64
31. ATCTCTAGATAAAGATAGTTCAGTGAATGCAAAT    0.499
32. TTTTGTAGATCAATAGAGGTTAAGAAAGTGCGCT    0.869
33. CAGCCTACGTCAGGGCCAGTATAGGAGGAACGTT    -0.021
34. CCGAGTTGGTTATGGGGCATTCAGGCAACGGTGA    -0.319
35. TTCCCAAGGTGAAAGGTCGTTGATGCACGCCTTG    2.13
36. AGTCAAAGTTCAGGACGAGGCAACGTAAAGCACG    4.55
37. CATCCAAGGTCAATGCTAGGTCAGTGAAAGCATT    6.9
38. CAGCCTAGGTCAGGGCCAGTAAAGGAGGAACGTT    3.44
39. ATACCATGGTGATCGTGAGGTCGTTGATACTAAC    0.264

----------
test system: THRa:RXRa (NR concentration 90 nM, RXRa partner concentration 90 nM); experiment: PBM binding z-score (relative to random genomic background probes); higher = stronger binding; sequences stand for … in GC…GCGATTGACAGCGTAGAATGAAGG
Rule: PBM binding z-score of 0.6 or more gives yes (1); anything lower gives no (0).

1) ACTTACGGGTCAACGAGGTTGTAGCACGCGTATA    yes (1)
2) TCTCGGACGACACGAAGGTCAGAGCTTTCCAGAG    yes (1)
3) CAGCCTAGGTCGGGGCCAGTATAGGAGGAACGTT    no (0)
4) AATACTGGGTCACTAGGCCAGAGTAGGTACGAAT    yes (1)
5) ACAGACACGTGAGTGAAGGTAACTCAGCTGGACG    no (0)
6) GCGACTGGGGCATCAGCGGGTTACCATAACTTAA    yes (1)
7) GGAACGAGGGCCAGTTGATAGCAGAGTTTGATGG    no (0)
8) ACTCAAAGTTCACTAGGTAACGTAAGATTCAGCT    yes (1)
9) ATCGAAAGGTCGAGGTGGGTATAGAGAAAGGGAA    yes (1)
10) TCTGGTAGATCAAGCAGGTTAAGAAAGCCTGAGT    no (0)
11) CCTACTGGGCCACGAAAGGTCATCGATTCAGTGA    yes (1)

----------
test system: PXR homodimer (NR concentration 270 nM); experiment: PBM binding z-score (relative to random genomic background probes); higher = stronger binding; sequences stand for … in GC…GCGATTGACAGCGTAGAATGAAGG
PROPERTY NAME: PBM binding z-score

1) TCATATAGTTAAACAGGTGAAAGTCCGTAAGTTA    0.543
2) CTCGAAAGATCGTGCTCAGGTGAGTATACCAAAC    -0.289
3) TCTTGTAGACCAACAGGAGGTTAAGAAAGATCGA    0.175
4) TCGAGTAGGTTAGTCGGGGGATTCAGCCAACATA    0.0667
5) TCATATATGTAATACAGGTGAAAGTCGGCATCTA    0.494
6) CCCGAAAGGTCGTGCTCAGGTGAGTATACCAAAC    0.159
7) TGTCAAAGTACAAAGGTAACGTAAGTATCCACAC    -0.194
8) GTACCAAGGTGAATAGGTCTTTGATGAGTAGGCG    0.119
9) GCTAGCAGGCCACTTGGGTCACTCAATGACGGGC    -0.237
10) TCTTGTACATCAAGCAGGTTAAGAAAGCCTGAGT    0.247
11) CTCGAAAGGTCGTGCACAGGTGAGTATACCAAAC    0.388

----------
test system: LXRb:RXRa (NR concentration 270 nM, RXRa partner concentration 90 nM); assay: PBM binding z-score (relative to random genomic background probes); higher = stronger binding; sequences stand for … in GC…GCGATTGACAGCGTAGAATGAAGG
PROPERTY NAME: PBM binding z-score

1. AATACAGGGTCATCGTAGGACAGAGTACGCACAG    4.91
2. CCTAGCAGGCCAATCTGCGTCACTCAAGGCTTGA    -0.429
3. CCGGCTGGGGCAAAGGTTACCATACTCAGTACGA    2.03
4. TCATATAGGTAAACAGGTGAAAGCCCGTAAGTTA    0.763

----------
tested on: RARa:RXR (NR concentration 270 nM, RXRa partner concentration 90 nM); assay: PBM binding z-score (relative to random genomic background probes); higher = stronger binding; sequences stand for … in GC…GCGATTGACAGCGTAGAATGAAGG
PROPERTY NAME: PBM binding z-score

1. CCTCGGAGGACAACATGAGGTCAGAGCTGCCAGA    2.67
2. CGATCTAGGTCAAGGACAGTGAATCTCCGCACGC    2.01
3. TCTTGTAGATCAAAGGTTGAGAAAGCCGAAGCCT    1.05
4. TATACAGGGACAAAGGCCAGAGTACGAATGTCGA    0.273
5. AGAATGAGGTTGCCAAAGATCAGGGAAACGCTTG    0.398
6. GCTGCTAGGTCAACTGATGATCAGCTAAAGCTCG    2.48
7. TCTTGTAGATCAACAGGAGGTTGAGAAAGATCGA    0.0993
8. ACTATTAGTTGAGACGAGGGCAGCCGATAGGTTG    0.335
9. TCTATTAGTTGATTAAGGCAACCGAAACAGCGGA    0.873
10. ATCTCTAGGTAACAAGTTCAGTAAAAGAGAGGAC    1.57
11. CAGCCTAGGTCAGGGCCAGTACAGGAGGAACGTT    1.03
12. CCGAGTGGGGCATAAGGTTACCATAAGCCAGCCC    1.27
13. CCGTCTGGGGCATAAGGTTACCATAAGCCAGCCC    1.39
14. CCTTACGGGTCAAGGTTATAGCTCGGGTGGTACG    3.72
15. CCTAGCAGGCAAGGGTCACTCAAGCATTTCGCTT    3.86
16. CCTCGGAGGCCAACAGGAGGTCAGAGCTGCCAGA    2.83
17. TCTAGCAGGCCAGAGGGACACTCAAGAGGTACGG    -1.02
18. GCTAGCAGGCCATATGGGTCACTCAATGACGGGC    1
19. CGAACTAGGTCAAGGACAGTGCATCTCCGCACGC    1.94
20. CATCCAAGGTCAAGGTCAGTGAAAGAGACTCGAA    5.12
21. GCAGACAGGTGAAACGCGGGTAACTCAGGGTGGC    0.318
22. AGAATGAGGTTATACGTAGATAAGGGAAGAAAGT    1.65
23. CCTCGGGGGACAACAGGAGGTCAGAGCTGCCAGA    2.8
